Measured values drawn from patent US20240083971A1 for this set.

Target: T1, human CD64 (recombinant) (human, UniProt P12314 16-288)
T1 chain: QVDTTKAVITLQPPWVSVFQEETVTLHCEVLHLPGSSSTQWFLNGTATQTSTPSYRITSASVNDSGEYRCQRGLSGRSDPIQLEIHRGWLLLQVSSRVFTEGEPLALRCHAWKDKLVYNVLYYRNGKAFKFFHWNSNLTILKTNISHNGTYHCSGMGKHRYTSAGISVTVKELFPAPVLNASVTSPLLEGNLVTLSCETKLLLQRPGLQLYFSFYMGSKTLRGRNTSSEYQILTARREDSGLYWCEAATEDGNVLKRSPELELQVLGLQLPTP
Assay: BLI; 12.5 nM CD64
MEASURED QUANTITY: pKd
Please keep in mind that pKd is minus log10 of the molar concentration; only the number is needed.

pKd recorded for this binder, XVNSCLLLPNLLGCGDDY (not fully specified; X1 is K, Ac-K(azido), or absent (azide clicked to DBCO-peg4-biotin); disulfide bond between C5 and C14; C-terminal amidation present or absent) [CP-33(C-term "Y" insertion mutant)-linker-biotin conjugate] , is 8.70
